- subject-of-test: T1, CD27 on CHO cells (UniProt P26842 20-260, limits assumed)
- T1 construct: whole, on cells; also called CD27+ CHO cells; irrelevant antigen (CD27)
- protocol-text: flow cytometry, 10 µg/mL mAb, geometric MFI
Measured MFI of CD27+ CHO cells, listed per entry for reference.
# output: bare number, no unit

Sample answers from the record:
| binder | MFI of CD27+ CHO cells |
| --- | --- |
| antibody A5 (L5H5) (antibody, V domains shown, also called aCTLA-4.28; CTLA4.A5) VH: QVQLVESGGGVVQPGRSLRLSCAASGFTFSSYGMHWVRQAPGKGLEWVAVIWYDGNNKYYADSVKGRFTISRDNSKNTLYLQMYSLRAEDTAVYYCARGGILAAGIFDYWGQGTLVTVSS VL: EIVLTQSPGTLSLSPGDRATLSCRASQSGSSSYLAWYQQKPGQAPRLLIYGASSRATGIPDRFSGSGSGTDFTLTISRLEPEDFAVYYCQQYGTSPFTSGPGTKVDIK | 17.2 |
| antibody A8 (L8H8) (antibody, V domains shown, also called aCTLA-4.1) VH: QVQLVESGGGVVQPGRSLRLSCAASGFTFSRYGMHWVRQAPGKGLEWVAVIWYDGRNKYYADSVKGRFTISRDNSKNTLYLQMNSLRAEDTALYSCARAGELGPFDYWGQGTLVTVSS VL: EIVLTQSPGTLSLSPGERATLSCRASQSVSYLAWYQQKPGQAPRLLIYGASSRATGIPDRFSGSGSGTDFTLTISRLEPEDFAVYYCQQYGSSPWTFGQGTKVEIK | 18.6 |
| antibody A1 (L1H1) (antibody, V domains shown, also called aCTLA-4.9; CTLA4.A1) VH: QVQLVESGGGVVQPGRSLRLSCAASGFTFSSFGMHWVRQAPGKGLEWVAVIWYDGRNKYYVDSVKGRFTISRDNSNNTLYLQMNSLRAEDTAVYYCARGEFFGEFFDYWGQGTLVTVSS VL: EIVLTQSPGTLSLSPGEGATLSCRASQSFSSNYLAWYQQKPGQAPRLLIYGASSRATGIPDRFSGSGSGTDFTLTISRLEPEDFAVYYCQQYGTSPFTFGPGTKVDIK | 18.5 |

Reported MFI of CD27+ CHO cells for antibody A4 (L4H4) (antibody, V domains shown, also called aCTLA-4.29) VH: QVQLVESGGGVVQPGRSLRISCAASGFTFSSYGIHWVRQAPGKGLQWVAVIWYDGRNKYYADSVKGRFTISRDNSKNTLYLQMNSLRAEDTAVYYCSRSGSFGAFDIWGQGTMVTVSS VL: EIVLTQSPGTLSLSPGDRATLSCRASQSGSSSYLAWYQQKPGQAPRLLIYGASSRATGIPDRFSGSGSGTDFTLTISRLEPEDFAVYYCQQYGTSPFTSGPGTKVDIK : what is it? 16.3
